What follows is a collection of IC50 values obtained with Aromatase (Homo sapiens).
Sequence (P11511 whole entry): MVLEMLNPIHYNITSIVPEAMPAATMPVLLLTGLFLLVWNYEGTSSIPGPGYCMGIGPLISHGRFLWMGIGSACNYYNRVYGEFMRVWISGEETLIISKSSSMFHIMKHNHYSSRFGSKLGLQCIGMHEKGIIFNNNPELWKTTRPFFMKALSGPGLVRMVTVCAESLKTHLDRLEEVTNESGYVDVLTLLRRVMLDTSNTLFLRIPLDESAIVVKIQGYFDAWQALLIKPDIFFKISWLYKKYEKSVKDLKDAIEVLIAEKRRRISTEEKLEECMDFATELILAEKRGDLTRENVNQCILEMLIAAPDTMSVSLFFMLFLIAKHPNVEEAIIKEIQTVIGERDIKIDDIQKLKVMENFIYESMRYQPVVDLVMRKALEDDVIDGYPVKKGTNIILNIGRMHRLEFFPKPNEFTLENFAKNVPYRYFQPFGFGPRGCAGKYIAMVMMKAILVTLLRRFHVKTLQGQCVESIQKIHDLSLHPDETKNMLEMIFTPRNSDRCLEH
Give a bare numeral; the unit µM is implied.

# example entries with known answers
Smiles data	Subject of test	Value reported
O=c1c(O)c(-c2cc(O)c(O)c(O)c2)oc2cc(O)cc(O)c12	Aromatase (Homo sapiens)	10
O=c1c(O)c(-c2ccc(O)c(O)c2)oc2c(O)c(O)cc(O)c12	Aromatase (Homo sapiens)	11

// switching to the query molecule
Bench note, Aromatase (Homo sapiens): O=C1C[C@@H](c2ccc(O)cc2)Oc2cc(O)ccc21 , IC50 reads 0.34
